Tested on: U-2932
Test: Combination study, ATPLite 72 h, dose matrix (Synergy Score, CI50)
Conditions: combination with Compound 1, 72 h
measure: Synergy Score growth inhibition

compound=O=C(Nc1ccc2[nH]nc(-c3ccncc3)c2c1)[C@@H]1CCN(CC(=O)N2CCN(c3ccc(-c4ncccn4)cc3)CC2)C1 assayed_system=U-2932 measure="Synergy Score growth inhibition" result="A1 (A1=0.0001 to <1)"
compound="CN1CCc2c(c3ccccc3n2Cc2ccc(C(=O)NO)cc2)C1.Cl [Tubastatin A hydrochloride]" assayed_system=U-2932 measure="Synergy Score growth inhibition" result="A1 (A1=0.0001 to <1)"

###

System: U-2932
Experiment: Combination study, ATPLite 72 h, dose matrix (Synergy Score, CI50)
Settings: combination with Compound 1, 72 h
measure: CI50 inhibition

chemical_smiles=CC(C)C[C@H](NC(=O)[C@H](Cc1ccccc1)NC(=O)c1cnccn1)B(O)O result="W (W=≥1)"
chemical_smiles=Nc1ncn([C@@H]2O[C@H](CO)[C@@H](O)[C@H]2O)c(=O)n1 result="W (W=≥1)"

###

Tested on: U-2932
Assay: Combination study, ATPLite 72 h, dose matrix (Synergy Score, CI50)
Conditions: combination with Compound 1, 72 h
measure: Synergy Score inhibition

Example results:
chemical_smiles=NC1(c2ccc(-c3nc4ccn5c(=O)[nH]nc5c4cc3-c3ccccc3)cc2)CCC1 result="A1 (A1=0.0001 to <1)"
chemical_smiles=C[C@@H]1C[C@H]2[C@@H]3CCC4=CC(=O)C=C[C@]4(C)[C@@]3(F)[C@@H](O)C[C@]2(C)[C@@]1(O)C(=O)CO result="A2 (A2=1 to <3)"
chemical_smiles=O=C(Nc1ccc2[nH]nc(-c3ccncc3)c2c1)[C@@H]1CCN(CC(=O)N2CCN(c3ccc(-c4ncccn4)cc3)CC2)C1 result="A1 (A1=0.0001 to <1)"
chemical_smiles=COc1ccc(-c2ccc3c(N4CCOC[C@@H]4C)nc(N4CCOC[C@@H]4C)nc3n2)cc1CO result="A2 (A2=1 to <3)"
chemical_smiles=CO[C@H]1C[C@@H]2CC[C@@H](C)[C@@](O)(O2)C(=O)C(=O)N2CCCC[C@H]2C(=O)O[C@H]([C@H](C)C[C@@H]2CC[C@@H](OCCO)[C@H](OC)C2)CC(=O)[C@H](C)/C=C(\C)[C@@H](O)[C@@H](OC)C(=O)[C@H](C)C[C@H](C)/C=C/C=C/C=C/1C result="A2 (A2=1 to <3)"

Now take the following compound into account.
[in] Record `CCCCCCCCCCCCCCCCCCOP(=O)([O-])OC1CC[N+](C)(C)CC1` : what is its Synergy Score inhibition with U-2932?
[out] A1 (A1=0.0001 to <1)

###

Test system: OCI-Ly3
Experiment: Combination study, ATPLite 72 h, dose matrix (Synergy Score, CI50)
Details: combination with Compound 1; OCI-Ly3; 72 h
measure: Synergy Score growth inhibition

compound="Nc1cccc2c1CN(C1CCC(=O)NC1=O)C2=O (stereo not drawn) [lenalidomide]" assayed_system=OCI-Ly3 measure="Synergy Score growth inhibition" result="A1 (A1=0.0001 to <1)"
compound=O=C(Nc1ccc2[nH]nc(-c3ccncc3)c2c1)[C@@H]1CCN(CC(=O)N2CCN(c3ccc(-c4ncccn4)cc3)CC2)C1 assayed_system=OCI-Ly3 measure="Synergy Score growth inhibition" result="A1 (A1=0.0001 to <1)"
